# Test system: Sam68 (KHDRBS1)
# experimentNotes: Sam68 small-molecule binders, primary screen, biochemical, small-molecule microarray, 635 nm fluorescence (AID 1125);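 also: score merges 667 nm channel intensity with signal to noise over triplicate slides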
# conditions: small-molecule microarray binding, higher = more signal
We use 1 as the dividing line for composite z-score: on or above the line is yes, below is no.

>  <molecule>
C=CC[C@H](OC(=O)Nc1ccc(OC)cc1)c1ccc(O)c2ccccc12

>  <targetOrSystem>
Sam68 (KHDRBS1)

>  <assignedClass>
yes

$$$$
>  <molecule>
O=C(O)[C@H](Cc1ccccc1)n1cc(-c2ccccn2)nn1

>  <targetOrSystem>
Sam68 (KHDRBS1)

>  <assignedClass>
no

$$$$
>  <molecule>
COc1c(C)cc(-c2cc3c(c(-c4ccccc4)n2)[Si](C(C)C)(C(C)C)OC3)cc1C

>  <targetOrSystem>
Sam68 (KHDRBS1)

>  <assignedClass>
no

$$$$
>  <molecule>
CC(C)C(=C=CC[C@H](O)c1ccc(OCCO)cc1)C[C@H](O)c1cc(Cl)cc(Cl)c1O

>  <targetOrSystem>
Sam68 (KHDRBS1)

>  <assignedClass>
yes

$$$$
>  <molecule>
COC1(C)CN(Cc2ccccc2Br)[C@H](/C=C/c2ccccc2)[C@H](Cc2ccccc2)O1 (some centres undefined)

>  <targetOrSystem>
Sam68 (KHDRBS1)

>  <assignedClass>
no

$$$$
>  <molecule>
COC(=O)[C@@]1(Cc2ccc(OC)cc2)[C@H]2c3cc(C(=O)N(C)C)n(CCc4c[nH]c5ccc(O)cc45)c3C[C@H]2CN1C(=O)c1ccccc1

>  <targetOrSystem>
Sam68 (KHDRBS1)

>  <assignedClass>
yes

$$$$
>  <molecule>
CCOc1cc(C(O)C2C=CC3C(=O)N(C4CCCCC4)C(=O)C3N2Nc2ccc(OC)cc2)ccc1O (centres undefined)

>  <targetOrSystem>
Sam68 (KHDRBS1)

>  <assignedClass>
yes

$$$$
>  <molecule>
O=C1NC(=O)C2C1C=CC(C(O)c1c(F)cccc1Cl)N2Nc1ccccn1 (centres undefined)

>  <targetOrSystem>
Sam68 (KHDRBS1)

>  <assignedClass>
no

$$$$

----------
# targetOrSystem: NADPH oxidase 5 (Homo sapiens)
# experimentNotes: NOX5-dependent H2O2 signal modulators, primary screen, NOX inhibitor project, cell-based, HEK293-NOX5, Amplex Red fluorescence (AID 1161)
# conditions: HEK293-NOX5, ionomycin, 45 min, higher = more signal
List of z-score values.

>  <compound>
CCOC(=O)C1=CC[C@@H](c2ccc([N+](=O)[O-])cc2)N(S(=O)(=O)c2ccc(C)cc2)[C@H]1c1ccccc1

>  <z-score>
1.43

$$$$
>  <compound>
CC(C)(C)N1CC=CC23O[C@@H]4C=CCOC(=O)[C@@H]4[C@H]2C(=O)N(CCCO)[C@@H]3C1=O (stereo partly drawn)

>  <z-score>
-1.09

$$$$
>  <compound>
Cc1ccc(S[C@]2(C(=O)NCCN3CCOCC3)CC(=O)N(Cc3ccccc3C(F)(F)F)[C@@H]2c2ccc(CO)cc2I)cc1

>  <z-score>
1.61

$$$$
>  <compound>
C=CCOC(=O)[C@H]1[C@@H]2C(=O)O[C@@H](c3ccccc3)[C@@H](c3ccccc3)N2[C@@H](c2ccc(OCCOC(=O)[C@H]3C[C@H]4C(=O)N[C@@H](CCCC[N+](C)(C)C)C(=O)N4[C@H]3c3cccc(OCCO)c3)cc2)[C@]12C(=O)Nc1ccc(I)cc12

>  <z-score>
0.14

$$$$
>  <compound>
COc1ccc([Si](C)(C)[C@H]2[C@H](CCn3cc([C@H](O)c4ccccc4)nn3)O[C@@]3(C(=O)N(Cc4cccc(N5C(=O)c6cccc7cccc5c67)c4)c4ccccc43)[C@@H]2C)cc1

>  <z-score>
1.56

$$$$
>  <compound>
CCOC(=O)C1=C[C@@H](c2ccccc2)N(S(=O)(=O)c2ccc(C)cc2)[C@H]1c1cccc(Cl)c1

>  <z-score>
0.0576

$$$$
>  <compound>
CC(=O)n1cc(C(O)C2C=CC3C(=O)N(Cc4ccccc4)C(=O)C3N2n2cnnc2)c2ccccc21 (stereo not drawn)

>  <z-score>
-0.392

$$$$
>  <compound>
C=CCN1Cc2ccccc2C[C@@]2(N=C(c3ccc(OCCCO)cc3)O[C@H]2c2ccccc2)C1=O

>  <z-score>
-3.72

$$$$
>  <compound>
CN(C)CCCNC(=O)[C@@H]1c2ccccc2C(=O)N(CC23CC4CC(CC(C4)C2)C3)[C@H]1c1ccc(CO)cc1

>  <z-score>
-0.657

$$$$
>  <compound>
COc1cc2c(cc1OC)CN(C(=O)[C@H]1[C@@H]3C(=O)O[C@@H](c4ccccc4)[C@@H](c4ccccc4)N3[C@@H](c3ccc(OCCO)cc3)[C@]13C(=O)Nc1ccc(C#CC4(O)CCCCCC4)cc13)CC2

>  <z-score>
1.28

$$$$
>  <compound>
CCOC(=O)C[C@H]1[C@H](OC(=O)c2ccccc2-c2ccccc2)[C@@H](NC(=O)CC(C)C)c2cc(OCCCO)ccc2N1C(=O)c1ccc2ccccc2n1

>  <z-score>
1.51

$$$$
>  <compound>
CN1C(=O)C2C=CC(C(O)Cc3ccccc3)N(N(c3ccccc3)c3ccccc3)C2C1=O (stereo not drawn)

>  <z-score>
0.158

$$$$
>  <compound>
COc1ccc([Si](C)(C)[C@@H]2[C@@H](CCn3cc([C@H](O)c4ccccc4)nn3)O[C@]3(C(=O)N(Cc4ccc(N5CCOC5=O)cc4)c4ccccc43)[C@H]2C)cc1

>  <z-score>
1.74

$$$$

----------
# System: Chordin-like protein 2 (CHRDL2)
# experimentNotes: CHRDL2 small-molecule binders, primary screen, biochemical, small-molecule microarray, 635 nm fluorescence (AID 1126);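 also: printed compound slides probed with Chrdl2 protein at 4 µg/mL for 1 h at 4 C; score merges 667 nm emission intensity with signal to noise over three replicate slides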
# conditions: small-molecule microarray binding, fluorescence 635 nm; higher = more signal
Below, each entry is listed alongside its reported composite z-score.

>  <smilesString>
C=C[C@@H](COC(C)=O)NS(=O)(=O)c1ccc(Br)cc1

>  <composite z-score>
0.0699

$$$$
>  <smilesString>
CC(=O)N1Cc2ccccc2C[C@]2(N=C(c3ccc(OCCCO)cc3)O[C@@H]2c2ccccc2)C1=O

>  <composite z-score>
0.15

$$$$
>  <smilesString>
CO[C@H]1O[C@H](CO)[C@@H](OC(=O)Nc2ccccc2-c2ccccc2)[C@H](OC(=O)Nc2ccc3c(c2)OCO3)[C@@H]1OC(=O)Nc1ccc2c(c1)OCO2

>  <composite z-score>
0.517

$$$$
>  <smilesString>
COCCOC(=O)N1C(=O)[C@@]2(c3cc(C#CC4=CCCCC4)ccc31)[C@H](c1ccc(O)cc1)N1[C@H](c3ccccc3)[C@H](c3ccccc3)OC(=O)[C@H]1[C@@H]2C(=O)Nc1nc2ccccc2s1

>  <composite z-score>
0.206

$$$$

----------
# experimentNotes: binders from COS7 lysate, DM2A8 probe, primary screen, torsin A project, cell lysate, small-molecule microarray, fluorescence 635/667 (AID 1065)
# conditions: higher = more signal, COS7 lysate expressing mutant human TOR1A
Known composite z-score of a selection of molecules

>  <molecule>
[N-]=[N+]=Nc1ccccc1C[C@@]1(C(=O)O)N=C(c2ccc(OCCCO)cc2)O[C@@H]1c1ccccc1

>  <composite z-score>
-0.518

$$$$
>  <molecule>
C[C@@H](OCc1ccccc1)C1NC(=O)[C@@]23C(=O)N[C@@H](Cc4ccccc4)C2[C@H](C)[C@@]2(C)O[C@H]2C3/C=C/C/C=C\CNC(=O)CNC1=O (some centres undefined)

>  <composite z-score>
0.667

$$$$
>  <molecule>
COc1ccc(NC(=O)O[C@H]2[C@H](OC(=O)Nc3ccc4c(c3)OCO4)[C@@H](OC(=O)Nc3ccc4c(c3)OCO4)[C@@H](OC)O[C@@H]2CO)cc1

>  <composite z-score>
-0.0536

$$$$
>  <molecule>
COCCOC(=O)N1C(=O)[C@@]2(c3cc(C#Cc4ccc(OC)cc4)ccc31)[C@H](C(=O)N1CCCCCCC1)[C@H]1C(=O)O[C@H](c3ccccc3)[C@H](c3ccccc3)N1[C@@H]2c1ccc(O)cc1

>  <composite z-score>
0.294

$$$$
>  <molecule>
COc1cc2c(cc1OC)CN(C(=O)[C@H]1[C@@H]3C(=O)O[C@@H](c4ccccc4)[C@@H](c4ccccc4)N3[C@@H](c3ccc(OCCO)cc3)[C@]13C(=O)Nc1ccc(C#CC4(O)CCCCCC4)cc13)CC2

>  <composite z-score>
0.774

$$$$
>  <molecule>
C=CC1c2cc(O)c(OC)cc2CCN1Cc1sc2ccccc2c1Cl (centres undefined)

>  <composite z-score>
0.396

$$$$
>  <molecule>
NC(=O)NCC#Cc1ccc2c(c1)[C@]1(C(=O)N2)[C@H](C(=O)O)[C@H]2C(=O)O[C@H](c3ccccc3)[C@H](c3ccccc3)N2[C@@H]1c1ccccc1OCCO

>  <composite z-score>
0.396

$$$$
>  <molecule>
COC(=O)Cn1c(C(=O)N2CCCC2)cc2c1C[C@H]1CN(C(=O)c3ccccc3)[C@@](Cc3ccc(F)cc3)(C(=O)OC)[C@@H]21

>  <composite z-score>
0.281

$$$$
>  <molecule>
CON(C)C(=O)C=C1C[C@@H](c2cccc(Cl)c2)O[C@@H](c2cccc(Cl)c2)O1

>  <composite z-score>
1.03

$$$$
>  <molecule>
CCOC(=O)C[C@H]1[C@H](OC(=O)Cc2ccc3c(c2)OCO3)[C@@H](NC(=O)Cc2ccc(OC)cc2)c2cc(OCCCO)ccc2N1C(=O)c1ccccc1

>  <composite z-score>
0.188

$$$$
>  <molecule>
Cc1ccc(F)cc1S(=O)(=O)N[C@@H]1CCN(Cc2ccc(Oc3ccccc3)cc2)C1

>  <composite z-score>
0.45

$$$$
>  <molecule>
COCCCNC(=O)[C@@H]1c2ccccc2C(=O)N(Cc2ccccc2C(F)(F)F)[C@H]1c1ccc(CO)cc1

>  <composite z-score>
0.054

$$$$
>  <molecule>
C=CCNC(=O)[C@@H]1[C@H]2C(=O)O[C@H](c3ccccc3)[C@H](c3ccccc3)N2[C@H](c2ccccc2OCCO)[C@@]12C(=O)N(C(=O)OCCOC)c1ccc(C#CC3=CCCCC3)cc12

>  <composite z-score>
0.683

$$$$
>  <molecule>
O=C1c2ccccc2[C@@]2(Cc3ccccc3N(C3CC3)C2=O)[C@H](c2ccc(CO)cc2)N1C1CCCCC1

>  <composite z-score>
-0.625

$$$$
